Where do the numbers come from? From the Kinase Knowledgebase extract (Sharma et al. 2016).

- System Tested: MAPK14 (UniProt Q16539)
- Sequence (Q16539 whole entry, looked up): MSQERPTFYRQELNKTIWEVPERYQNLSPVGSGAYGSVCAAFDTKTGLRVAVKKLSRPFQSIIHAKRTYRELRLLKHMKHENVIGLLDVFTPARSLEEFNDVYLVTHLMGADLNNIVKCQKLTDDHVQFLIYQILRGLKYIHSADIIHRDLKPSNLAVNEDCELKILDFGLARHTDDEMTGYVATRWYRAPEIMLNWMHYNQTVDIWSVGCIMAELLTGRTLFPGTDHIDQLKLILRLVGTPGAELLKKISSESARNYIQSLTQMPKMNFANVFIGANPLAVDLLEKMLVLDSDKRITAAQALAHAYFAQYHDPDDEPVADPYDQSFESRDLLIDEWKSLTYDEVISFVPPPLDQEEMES
pIC50: −log10 of the molar value.

Cpd Smiles	pIC50
CC(C)(N)[C@H]1CC[C@H](C(=O)Nc2ccncc2)CC1	< 4.00

* * *

- System Tested: UniProt:P00533
- Sequence (P00533 whole entry, looked up): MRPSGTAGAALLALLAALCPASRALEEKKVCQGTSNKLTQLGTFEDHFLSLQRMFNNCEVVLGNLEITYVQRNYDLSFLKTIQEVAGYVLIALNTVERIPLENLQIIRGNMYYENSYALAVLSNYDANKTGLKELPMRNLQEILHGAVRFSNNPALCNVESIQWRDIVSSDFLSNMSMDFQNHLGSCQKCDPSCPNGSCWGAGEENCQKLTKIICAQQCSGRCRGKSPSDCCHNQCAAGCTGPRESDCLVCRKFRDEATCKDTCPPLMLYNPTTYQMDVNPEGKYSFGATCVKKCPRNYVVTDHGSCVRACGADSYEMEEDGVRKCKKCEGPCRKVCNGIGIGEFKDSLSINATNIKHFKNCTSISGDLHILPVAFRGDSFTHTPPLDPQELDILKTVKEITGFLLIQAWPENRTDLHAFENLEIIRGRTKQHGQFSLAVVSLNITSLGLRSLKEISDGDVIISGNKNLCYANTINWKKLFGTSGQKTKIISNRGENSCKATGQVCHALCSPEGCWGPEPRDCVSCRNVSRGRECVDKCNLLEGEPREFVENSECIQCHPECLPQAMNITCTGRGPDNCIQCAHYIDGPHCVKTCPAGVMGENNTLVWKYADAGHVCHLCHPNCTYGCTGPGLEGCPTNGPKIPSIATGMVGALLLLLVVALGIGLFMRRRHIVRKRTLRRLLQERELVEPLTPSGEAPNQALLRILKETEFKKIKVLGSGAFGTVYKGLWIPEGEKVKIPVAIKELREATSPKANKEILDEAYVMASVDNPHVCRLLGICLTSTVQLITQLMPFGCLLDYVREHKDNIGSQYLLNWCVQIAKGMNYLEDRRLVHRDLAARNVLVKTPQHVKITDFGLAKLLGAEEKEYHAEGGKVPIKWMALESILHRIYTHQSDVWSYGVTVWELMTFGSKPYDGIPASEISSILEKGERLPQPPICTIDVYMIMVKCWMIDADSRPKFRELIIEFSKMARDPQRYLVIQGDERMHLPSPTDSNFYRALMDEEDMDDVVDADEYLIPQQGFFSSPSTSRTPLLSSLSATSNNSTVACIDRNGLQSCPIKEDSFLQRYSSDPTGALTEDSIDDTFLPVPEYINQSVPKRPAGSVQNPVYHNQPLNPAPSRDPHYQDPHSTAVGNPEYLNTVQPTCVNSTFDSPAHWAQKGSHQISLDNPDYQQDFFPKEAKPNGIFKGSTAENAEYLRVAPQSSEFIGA
Reported Metric: IC50 (µM)

Cpd Smiles	Output Unit	Experimental Value
CC(C)(N)[C@H]1CC[C@H](C(=O)Nc2ccncc2)CC1	µM	100

* * *

// pIC50 collected for ROCK2 (UniProt O75116)
pIC50: −log10 of the molar value.
Reported Metric: pIC50

Molecule	Experimental Value
Cc1cncc2cccc(S(=O)(=O)N3CCNC(C)CC3)c12 (configuration not stated)	6.91
C[C@H]1CNCCCN1S(=O)(=O)c1cccc2cncc(O)c12	5.56
CC(C)(N)[C@H]1CC[C@H](C(=O)Nc2ccncc2)CC1	6.79
CC[C@H]1CNCCCN1S(=O)(=O)c1cccc2cncc(C)c12	6.95
Cc1cncc2cccc(S(=O)(=O)N3CCNCC(C)C3)c12 (configuration not stated)	6.97
CCc1cncc2cccc(S(=O)(=O)N3CCCNC[C@@H]3C)c12	6.18
C[C@H]1CNCCCN1S(=O)(=O)c1cccc2cncc(Br)c12	8.23
